test system: OVCAR-4 ovarian; assay: NCI-60 one-dose screen, 48 h; conditions: 10 µM unless noted
The panel holds about 83,000 compounds, 20% with a hit somewhere; the sample as a whole holds those more often. Calls of active or inactive are those of the source. Rule for the calls: active = growth percent below 10; inactive = the rest.
Result category, one only: active, inactive

CCCCCCN(CCCCCC)CCC(=O)Nc1ccc(S(=O)(=O)c2ccc(NC(=O)CCN(CCCCCC)CCCCCC)cc2)cc1; inactive
Oc1ccc(Br)cc1/C=N/NC(=S)NC12CC3CC(CC(C3)C1)C2; inactive
COc1ccc(C2=C/C(=C\c3ccc(Cl)cc3)C(=O)NN2C(=S)NN)cc1; inactive
Brc1ccc(-c2nc3ccccc3s2)cc1; inactive

Check the results log: what was the call for "C[C@H]1C[C@@H](n2cnc3c(N)nccc32)[C@H](O)[C@@H]1O" ?
inactive

Next entry: "CC(=O)Nc1nc(C)c(C(=O)NNS(=O)(=O)c2ccccc2)s1"
inactive

Next entry: CCOC(=O)C1=C(c2ccccc2)NC(=O)NC1CN1C(=O)c2ccccc2C1=O (centres undefined)
inactive

Next entry: O=C1CSC(c2ccccc2Cl)N1c1nnc(-c2ccncc2)o1 (centres undefined)
inactive

----------
tested on: KM12 colon; assay: NCI-60 one-dose screen, 48 h; details: 10 µM unless noted
The panel holds about 83,000 compounds, 20% with a hit somewhere; the sample as a whole holds those more often. Active and inactive are the calls of the source. The calls were made as follows: active = growth percent below 10; inactive = the rest.
Result category, one only: active, inactive

CCCCCCN(CCCCCC)CCC(=O)Nc1ccc(S(=O)(=O)c2ccc(NC(=O)CCN(CCCCCC)CCCCCC)cc2)cc1; inactive
O=S(=O)(Cc1cccc2c(CS(=O)(=O)c3ccc(Cl)cc3)cccc12)c1ccc(Cl)cc1; inactive
Cc1nnc(-c2cc3c(ccc4ccccc43)oc2=O)c2cn(-c3ccc(Cl)cc3)nc12; inactive

Check the results log: what was the call for "CC1(C)Oc2cc3oc(=O)ccc3cc2C[C@@H]1OCCOS(=O)(=O)c1ccc(C#N)cc1" ?
inactive

Next entry: "CCOC1=C(Cl)C(=O)C(OCC)=C(Cl)C1=O"
inactive

Next entry: "O=C(NC1CCN(Cc2ccccc2)CC1)c1cc(-c2cccnc2)nc2ccc(Cl)cc12"
inactive

Next entry: "CC(=O)N(N=O)c1ccc([N+](=O)[O-])cc1Cl"
inactive

Next entry: "Cc1cc2cn3c4ccc(O)cc4nc(N)c3c2cc1C"
active

Next entry: "COC(=O)Nc1nc2ccc(C(=O)c3ccccc3N(C)C3COC3)cc2[nH]1"
inactive

----------
tested on: COLO 205 colon; experiment: NCI-60 one-dose screen, 48 h (100 = growth as untreated, 0 = no growth, -100 = all killed); details: 10 µM unless noted
Compounds without any hit were thinned out: in the full panel of roughly 83,000, 20% have a hit. Active and inactive are the calls of the source. The calls were made as follows: active = growth percent below 10; inactive = the rest.
# key: entry, value: growth

Completed entries (count: 5):
Cc1ccc(C(=O)C(Br)C(Br)c2ccccc2)cc1 (configuration not stated); 52.8% (inactive)
Cc1ccc([C@@H]2C[C@H](O)Cc3ccccc3N2)s1; 98.8% (inactive)
Cc1nc(NC(=O)NC2CCCCC2)sc1C(=O)NN; 119% (inactive)
CCC(C)(C)c1ccc(OCCCCCCN2CCNCC2)cc1; -50% (active)
CCCCCCNc1nc(N2CCOCC2)c2[nH]c(NCCCCCC)nc2n1; -64.8% (active)

Field request: growth | item: "COc1ccc2cn3c4ccc(O)cc4[nH]c(=O)c3c2c1"
-7.26% (active)

Next entry: "CCCCCCCCCCCCCCCCNC(=S)N/N=C/c1ccc(O)cc1O"
98% (inactive)

Next entry: "Nc1ccc(S(=O)(=O)Nc2cc(F)cc(F)c2)cc1"
112% (inactive)

Next entry: "COc1cc(-c2nn(-c3ccc(NC(=O)Nc4ccc(Cl)c(C(F)(F)F)c4)cc3)cc2-c2ccncc2)ccc1Cl"
-94% (active)

Next entry: "COC(=O)[C@H](Cc1cn(C)cn1)NC(=O)[C@H](CC(=O)OCc1ccccc1)NC(=O)Nc1cc(C(F)(F)F)cc(C(F)(F)F)c1"
-93.7% [100 µM] (active)

Next entry: "COc1ccc2oc(=O)cc(CN3C(=O)S/C(=C\c4ccc(Cl)cc4)C3=O)c2c1"
136% (inactive)

Next entry: "O=C(Nn1cnc2ccccc21)N1CCCC1"
117% (inactive)

----------
tested on: NCI-H226 lung; experiment: NCI-60 one-dose screen, 48 h; conditions: 10 µM unless noted
The panel holds about 83,000 compounds, 20% with a hit somewhere; the sample as a whole holds those more often. Active and inactive are the calls of the source. The calls were made as follows: active = growth percent below 10; inactive = the rest.
Result category, one only: 1 (yes) (active), 0 (no) (inactive)

Check out these entries, answers already filled in.
Oc1ccccc1\C=N/N=C/C=C/c1ccccc1; 0 (no)
OCCN1CCN(CC/C=C2/c3ccccc3Sc3ccc(C(F)(F)F)cc32)CC1; 0 (no)
CC#Cc1nc(Nc2cc(C)[nH]n2)c2ccccc2n1; 1 (yes)
O=C(Nc1ccc(Cl)cn1)C1(c2ccccc2)CCCCC1; 0 (no)

Check the results log: what was the call for "CCOc1nc(-c2ccccc2)cc2c(O)c(C(=O)N/N=C/c3ccccc3O)[nH]c(=O)c12" ?
0 (no)

Next entry: "Cc1nn(-c2ccccc2)c(N)c1N=C1NC(=O)/C(=C/c2ccc(Cl)cc2)S1"
0 (no)

----------
test system: NCI-H23 lung; test: NCI-60 one-dose screen, 48 h; settings: 10 µM unless noted
About 83,000 compounds went through this panel and 20% of them were active in at least one assay; those are over-represented in the sample as a whole. Calls of active or inactive are those of the source. The calls were made as follows: active = growth percent below 10; inactive = the rest.
Result category, one only: active, inactive

Check out these entries, answers already filled in.
CCCC(=O)NNc1[nH]c(-c2cc(OC)c(OC)c(OC)c2)cc1C(=O)OCC; inactive
CC(=O)C(CO)C(=O)Nc1ccccc1 (stereo not given); inactive
CCOC(=O)NC1=NCC(C)(C)S1; inactive
CCCCCCCCc1ccc(OCCOCC[N+](C)(C)CC)cc1 (tested in a mixture with another compound); inactive
COc1ccc(C(=O)N2N=C(c3ccc(Br)cc3)CC2c2cn(-c3ccccc3)nc2-c2ccccc2)cc1 (stereo not given); inactive

Check the results log: what was the call for "O=C(CBr)OCc1ccc([N+](=O)[O-])o1" ?
inactive

Next entry: "NCCCOc1cc2ccccc2cc1C(=O)Nc1ccc(Cl)cc1OC(=O)c1cc2ccccc2cc1OCCCN"
active

Next entry: "O=C(Nc1ccccc1)Nc1ccc(Nc2ncnc3sc4c(c23)CCCC4)cc1"
inactive

Next entry: "O=S(=O)(O)CCI"
inactive

Next entry: "CC(C)OC(=O)[C@H](C)N[P@@](=O)(OC[C@@]1(C)O[C@@H](n2cc(F)c(N)nc2=O)C[C@@H]1O[P@](=O)(N[C@@H](C)C(=O)OC(C)C)Oc1ccccc1)Oc1ccccc1"
inactive

----------
# key: entry, value: growth
Test system: HS 578T breast
Assay: NCI-60 one-dose screen, 48 h (100 = growth as untreated, 0 = no growth, -100 = all killed)
Details: 10 µM unless noted
Method: Growth inhibition of the HS 578T human tumor cell line is measured as a screen for anti-cancer activity. Cells are grown in 96 well plates and exposed to the test compound for 48 hours. Compounds are tested at a single concentration, which is 10^-5 M for most compounds. The reported endpoint is percent growth (GI% or GIPRCNT), where numbers from 0 - 100% represent growth inhibition, and numbers from -100% - 0 represent cell death. For example, a value of 40 represents 60% growth inhibition. […]
The panel holds about 83,000 compounds, 20% with a hit somewhere; the sample as a whole holds those more often.
Hi! Could you send only the number? It should be in %, unit omitted.

Completed entries (count: 9):
O=C(OCC1CC2(Cl)C(Cl)=C(Cl)C1(Cl)C2(Cl)Cl)C1C(C(=O)OCC2CC3(Cl)C(Cl)=C(Cl)C2(Cl)C3(Cl)Cl)C2(Cl)C(Cl)=C(Cl)C1(Cl)C2(Cl)Cl (stereo not given); 117
O=C1c2ccccc2CCc2ccccc21; 105
Cc1ccc(OCCn2ccc(=O)n(CCOc3ccc(Cl)cc3C(=O)c3cc(C)cc(C)c3)c2=O)cc1; 37.2
COc1cc2ncnc(-n3ncc4cc(NC(=O)Nc5ccc(Cl)c(C)c5)ccc43)c2cc1OC; 75.9
CCCCCCCCC(=O)Nc1ccc(O)cc1; 103
OCC(O)C(O)CC1SCCS1 (stereo not given); 106
Nc1ccc(S(=O)(=O)c2ccc(NO)cc2)cc1; 97
CCS(=O)(=O)OCCO[C@H]1Cc2cc3ccc(=O)oc3cc2OC1(C)C; 98
CCCCCSc1ccc2nc(NC(=O)OCCC)sc2c1; 23.9

Field request: growth | item: "CC(=O)c1cc(Nc2cc(C)nc(N)n2)cc(C(C)=O)c1"
94.6

----------
system: RXF 393 renal; assay: NCI-60 one-dose screen, 48 h; conditions: 10 µM unless noted
This is part of a sample that, as a whole, favours compounds with a hit. Of some 83,000 tested, about 20% had one in any assay. Activity calls are given as the source filed them. How the source made its calls: active means growth percent below 10; inactive means the rest.
Result category, one only: active, inactive

Check out these entries, answers already filled in.
OCC(O)C(O)CC1SCCS1 (configuration not stated); inactive
O=C(Nc1ccc(Cl)c(Cl)c1)O/N=C\c1c(Cl)ccc([N+](=O)[O-])c1Cl; active
O=C1/C(=C/c2ccc(Cl)cc2)CCC/C1=C\c1ccc(Cl)cc1; inactive

Check the results log: what was the call for "CCOC(=O)c1c(C)oc2ncnc(Nc3ccc(NC(=O)Nc4cccc(Cl)c4)cc3)c12" ?
inactive

Next entry: "C/C(=N\Nc1cccc(Cl)n1)c1ccccn1"
inactive

Next entry: "CCOC(=O)c1ccc2n1CCCc1cnc(NC(C)=O)nc1-2"
inactive
